Exercise: for every item that follows, state its recorded TGI.
Tested on: UO-31 renal
Assay: NCI tumour cell line growth inhibition, 48 h
Give your result in µM as a bare value.

Return TGI for the following compound: COc1cc(C)c(NC(=O)CN(C)C)cc1Nc1nc(Nc2cccc(F)c2C(N)=O)c2cc[nH]c2n1
7.08

Return TGI for the following compound: Cc1cc(N(CCOS(C)(=O)=O)CCOS(C)(=O)=O)ccc1C=Nc1ccc(-c2csc(-c3ccc(Br)cc3)n2)cc1
33.6

Return TGI for the following compound: COc1cc2c(cc1OCCCN1CCN(c3ncnc4ccccc34)CC1)N=CC1CCCN1C2=O (centres undefined)
0.558

Return TGI for the following compound: CCOC(=O)N1C=CC(=C2C(=C3C=CN(C(=O)OCC)C=C3)C(=C3C=CN(C(=O)OCC)C=C3)C2=C2C=CN(C(=O)OCC)C=C2)C=C1
38.5

Return TGI for the following compound: CCN(CC)C(=S)SS(=O)(=O)c1ccc(NC(C)=O)cc1
42.6

* * *

Tested on: OVCAR-5 ovarian
Test: NCI tumour cell line growth inhibition, 48 h
Exercise: for every item that follows, state its recorded log10 TGI.
Please interpret these as log10 of TGI where TGI is in µM.

Return log10 TGI for the following molecule: Oc1c(CN2CCN(c3ccccc3F)CC2)cc(Br)c2cccnc12
1.69

Return log10 TGI for the following molecule: COC(=O)/C=C1/OC(c2ccc(C)cc2)=C(Cl)C1=O
1.54

Return log10 TGI for the following molecule: COc1cc2c(cc1OCCCN1CCN(c3ncnc4ccccc34)CC1)N=CC1CCCN1C2=O (centres undefined)
-1.14

Return log10 TGI for the following molecule: c1ccc2c3c(ccc2c1)-c1c(ccc2c(NCCCCN4CCCCC4)cccc12)C3
0.46

Return log10 TGI for the following molecule: Cc1ccc(S(=O)(=O)OC[C@@]2(C)CC[C@]3(C)CC[C@]4(C)C(=CC[C@@H]5[C@@]6(C)CCCNC(C)(C)[C@@H]6CC[C@]54C)[C@@H]3C2)cc1
0.51

Return log10 TGI for the following molecule: Cc1cc(O)c2c(c1)CC(O)C1=C2C(=O)c2c(O)ccc(OC3CC(O)C(OC4CC(OC5CCC(O)C(C)O5)C(O)C(C)O4)C(C)O3)c2C1=O (centres undefined)
1.11

* * *

Test system: SK-OV-3 ovarian
Experiment: NCI tumour cell line growth inhibition, 48 h
Exercise: for every item that follows, state its recorded TGI.
Give your result in µM as a bare value.

# return TGI for c1ccc2c3c(ccc2c1)-c1c(ccc2c(NCCCCN4CCCCC4)cccc12)C3 , test system: SK-OV-3 ovarian
35.3

# return TGI for O=S(=O)(Nc1ccccn1)c1ccc(N=Nc2ccc(O)c3ncccc23)cc1 , test system: SK-OV-3 ovarian
6.59

* * *

Exercise: for every item that follows, state its recorded TGI.
Test system: OVCAR-5 ovarian
Assay: NCI tumour cell line growth inhibition, 48 h
Give your result in µM as a bare value.

Return TGI for the following compound: COc1cc(Nc2nc3cc(C(F)(F)F)ccc3nc2C)cc(OC)c1OC
26.7

Return TGI for the following compound: CCCCCC/C=C1\CCC(CN(C)C)C1=O (stereo unspecified)
30.8

Return TGI for the following compound: CC1=C[C@@H]2[C@@H](CC(CO)=C[C@H]3[C@@H]4C(C)(C)[C@]4(OCC(C)C)[C@H](OCC(C)C)[C@@H](C)[C@]23O)C1=O
8.23

Return TGI for the following compound: CCOC(=O)c1c(CN2CCCC2)n(-c2ccccc2)c2cc(Br)c(OC)cc12
45.7

Return TGI for the following compound: COc1ccc(C2C(C=O)C(N3CCN(C)CC3)=Nc3nc4ccccc4n32)cc1 (stereo unspecified)
59.7

Return TGI for the following compound: COC(=O)c1ccc(NCC2=CC(=O)C=CC2=O)cc1
32.3

* * *

Tested on: NCI-H226 lung
Experiment: NCI tumour cell line growth inhibition, 48 h
ASSAY ENDPOINT: TGI (µM)
Give your result in µM as a bare value.

Return TGI for the following compound: COc1cc2c3c(n(CCCN4CCCC(O)C4)c(=O)c2cc1OC)-c1cc2c(cc1C3=O)OCO2 (stereo not given)
4.31

Return TGI for the following compound: CC(C)C1COC(c2ccc3ccccc3c2-c2c(O[Si](C)(C)C(C)(C)C)ccc3ccccc23)=N1 (stereo not given)
26.4

Return TGI for the following compound: COc1ccc(C2=NN(C(=O)c3cccnc3)C(O)(c3cc(F)c(Cl)cc3Cl)C2)cc1OC (stereo not given)
30

Return TGI for the following compound: COc1ccc(C(SCC(N)C(=O)O)(c2ccc(OC)cc2)c2ccc(OC)cc2)cc1 (stereo not given)
18.3

Return TGI for the following compound: Cn1sc2ccccc2c1=S
53.4

Return TGI for the following compound: c1ccc2c(c1)[nH]c1c2ncc2[nH]c3ccccc3c21
49.1

Return TGI for the following compound: CN1CCN(CC(=O)N2c3cccc4cccc(c34)N(C(=O)CN3CCN(C)CC3)C2c2cn(-c3ccccc3)nc2-c2cccc([N+](=O)[O-])c2)CC1
4.8

Return TGI for the following compound: O=[N+]([O-])c1ccc(C(=Nc2ccccc2)SSC(=Nc2ccccc2)c2ccc([N+](=O)[O-])o2)o1
56.4

Return TGI for the following compound: COc1cc(Nc2nc3cc(C(F)(F)F)ccc3nc2C)cc(OC)c1OC
22.8

Return TGI for the following compound: CCCCCC/C=C1\CCC(CN(C)C)C1=O (stereo not given)
36.5

Return TGI for the following compound: c1ccc2c(CNCCCCCCCCCCCCNCc3cccc4ccccc34)cccc2c1
4.57

Return TGI for the following compound: CC1=CC(=O)c2ccc(C)cc2C1=O
39.5

Return TGI for the following compound: COC(C)(C)[C@H](O)C(O)CC(C)[C@@H]1CCC23CC12CCC1[C@@]2(C)CCC(OC(C)=O)C(C)(C)C2CC(OC2OC(COC(C)=O)C(O)C(O)C2O)[C@]13C (stereo not given in full)
16.9

Return TGI for the following compound: Nc1nc(-c2ccccc2)cc(-c2ccc(Cl)cc2)c1-c1nc2ccccc2o1
29.2

* * *

System: SK-MEL-2 melanoma
Assay: NCI tumour cell line growth inhibition, 48 h
Values of TGI greater than or equal to 10 µM map to yes; values below map to no.

In plain terms: is recorded TGI at least 10 µM for CC1=CC(=O)/C(=C/n2c(=S)[nH]c3ccc([N+](=O)[O-])cc32)C(=O)O1 ?
yes

In plain terms: is recorded TGI at least 10 µM for Cc1ccc(C2SCC(=O)N2NC(=O)c2ccncc2)s1 (configuration not stated) ?
yes

In plain terms: is recorded TGI at least 10 µM for CCN(CC)C(=S)SS(=O)(=O)c1ccc(NC(C)=O)cc1 ?
yes

In plain terms: is recorded TGI at least 10 µM for COc1ccc(C(SCC(N)C(=O)O)(c2ccc(OC)cc2)c2ccc(OC)cc2)cc1 (configuration not stated) ?
yes

In plain terms: is recorded TGI at least 10 µM for CCCN1C(=O)CNC(=O)c2[nH]cnc21 ?
yes

In plain terms: is recorded TGI at least 10 µM for C=C1C(=O)O[C@H]2[C@H]1CC/C(COC(=O)NCc1cc(OC)cc(OC)c1)=C\CC[C@@]1(C)O[C@@H]21 ?
no

In plain terms: is recorded TGI at least 10 µM for COC(=O)/C=C1/OC(c2ccc(C)cc2)=C(Cl)C1=O ?
yes

In plain terms: is recorded TGI at least 10 µM for Oc1c(I)cc(I)cc1CN(Cc1ccccn1)Cc1ccccn1 ?
yes

In plain terms: is recorded TGI at least 10 µM for O=c1/c(=C/c2ccc([N+](=O)[O-])o2)sc2n1[C@@H](c1ccc3c(c1)OCO3)C=C(c1cc(F)c(Cl)cc1Cl)N=2 ?
yes

In plain terms: is recorded TGI at least 10 µM for O=C(O)[C@@H](NS(=O)(=O)c1ccc([N+](=O)[O-])cc1)c1ccccc1 ?
yes

In plain terms: is recorded TGI at least 10 µM for CC(C)NC(=O)OCc1c(COC(=O)NC(C)C)c(-c2ccc[n+](COC(=O)C(C)(C)C)c2)n2c1CCC2 ?
yes

In plain terms: is recorded TGI at least 10 µM for COc1ccc(C2C3=C(COC3=O)Oc3cc4c(cc32)OCO4)cc1 (configuration not stated) ?
yes

In plain terms: is recorded TGI at least 10 µM for COc1cccc(C2c3cc4c(cc3OC(N3CCCCC3)C2C)OCO4)c1OC (configuration not stated) ?
yes

In plain terms: is recorded TGI at least 10 µM for O=[N+]([O-])c1ccc(C(=Nc2ccccc2)SSC(=Nc2ccccc2)c2ccc([N+](=O)[O-])o2)o1 ?
no

In plain terms: is recorded TGI at least 10 µM for COC(=O)C1=C(C)N(NC(N)=O)C(C)(O)C12CCOC2=O (configuration not stated) ?
yes

In plain terms: is recorded TGI at least 10 µM for O=S(=O)(Nc1ccccn1)c1ccc(N=Nc2ccc(O)c3ncccc23)cc1 ?
no

In plain terms: is recorded TGI at least 10 µM for O=C(CC(=O)N1N=C(N(c2ccccc2)c2ccccc2)CC1c1ccccc1)Nc1ccccc1 (configuration not stated) ?
yes
